test system: HCT-116 colon; test: NCI-60 one-dose screen, 48 h; settings: 10 µM unless noted
Compounds without any hit were thinned out: in the full panel of roughly 83,000, 20% have a hit. Activity calls are given as the source filed them. The calls were made as follows: active = growth percent below 10; inactive = the rest.
Please state which outcome applies, choosing from active, inactive

Any idea what this test logged for "CCOC(=O)c1nc2c3ccccc3cnn2c1C(=O)c1ccc(OC)cc1" ?
inactive

Repeat with "C=C(C)[C@@H]1CC[C@]2(C)[C@H](CC(=O)N[C@H]3[C@@H]4C[C@](C)(C(=O)OC)CC[C@]4(C)CC[C@]32C)[C@@]1(C)CCC#N"
inactive

Same read-out for "C[C@@H]1O[C@@H](O[C@H]2[C@@H](OC(=O)[C@]34CCC(C)(C)C[C@H]3C3=CC[C@@H]5[C@@]6(C)C[C@H](O)[C@H](O[C@@H]7O[C@H](CO)[C@@H](O)[C@H](O)[C@H]7O)[C@@](C)(CO)[C@@H]6CC[C@@]5(C)[C@]3(C)C[C@H]4O)OC[C@@H](O)[C@@H]2O)[C@H](O)[C@H](O[C@@H]2OC[C@@H](O)[C@H](O[C@@H]3OC[C@](O)(CO)[C@H]3O[C@@H]3OC[C@@H](O)[C@H](O)[C@H]3O)[C@H]2O)[C@H]1O[C@@H]1OC[C@](O)(CO)[C@H]1O" ?
inactive

Query CC1(Cc2ccccc2)CC2=C(C(=O)O1)C(c1ccccc1)NC(=O)N2 (stereo not given) next
inactive

Again, but for "CCN(CC)CCOc1ccccc1C"
inactive

Another compound to look at: "COc1ccc(Nc2nn3c(SCC(=O)c4ccc(C)cc4)nnc3s2)cc1"
inactive

Quick one: "COc1ccc(/C=N/NC(=O)CN2CCN(c3cc4c(cc3F)c(=O)c(C(=O)O)cn4C3CC3)CC2)cc1O"
inactive

Further, for "COc1ccc(-c2ccc(-c3ccc(C(=N)N)cn3)o2)cc1Cl" ?
active

Subsequent entry: "O=C(c1cccc(Br)c1)N1CCN(c2ccnc3cc(Cl)ccc23)CC1"
inactive

Likewise for "Clc1cccc(Nc2ncnc3ccc(-c4cncc(-n5cnnn5)c4)cc23)c1" ?
inactive

Again, but for "O=C(CCCCCCCCC(=O)N/N=C\c1ccccc1O)N/N=C\c1ccccc1O"
inactive

Lookup "COc1ccc(Nc2ncnc3ccc(-c4cncc(NS(C)(=O)=O)c4)cc23)cc1Cl"
inactive

Now consider "CCOC(=O)c1c(-c2ccc(OC)cc2)c(C#N)c2c(C#N)c(N)nn2c1N" .
inactive

Likewise for CCOC(=O)CC1CSC(c2cccc(Cl)c2)=N1 (stereo not given) ?
inactive

Request: "CNC(=O)c1cc(Oc2ccc3nc(NC(=O)Nc4ccc(C(F)(F)F)cc4)sc3c2)ccn1"
active

// next record "CN1C(=O)/C(=C/c2ccc(C(=O)Nc3ncc(Cc4ccccc4Cl)s3)cc2)SC1=S"
inactive

Follow-up item: COc1ccc2c(c1)CC[C@@H]1[C@@H]2CC[C@]2(C)C3C(=CCC4C(=O)N(c5ccccc5)C(=O)C43)C[C@@H]12 (stereo not given in full)
inactive

Further, for "c1cc(NCCCCN2CCOCC2)c2ccc3c(ccc4c(NCCN5CCOCC5)ccnc43)c2n1" ?
inactive

How about CCCn1nc(C(=O)N2CCCCC2)c2c1CCC(N1CCC(c3ccncc3)CC1)C2 (stereo not given) ?
inactive

Now the compound "NC(N)=NC(N)=NCCCc1ccco1"
inactive

Next: "FC(F)(F)Sc1ccc(/C=C/c2cc(/C=C/c3ccc(SC(F)(F)F)cc3)n(-c3ccccc3)n2)cc1"
inactive

Entry to check: "Cc1cc(N2CCCCC2)nc(NCc2cc(Nc3ccnc4cc(Cl)ccc34)ccc2F)n1"
active

Ok, now "Cc1cc(N2CCN(CC(=O)Nc3ccc4c(ccn4Cc4ccccc4)c3)CC2)nc(N2CCCCCC2)n1"
inactive

Repeat for the following compound: "CCCCn1c(C(=O)c2c[nH]c3ccccc23)n[nH]c1=S"
inactive

Same again, this time with "Cc1oc2c(Cc3ccc(NC(=O)c4ccc(Cl)cc4)cc3)ncnc2c1C(=O)NO"
inactive

###

system: SF-268 CNS; assay: NCI-60 one-dose screen, 48 h (100 = growth as untreated, 0 = no growth, -100 = all killed); conditions: 10 µM unless noted
This is part of a sample that, as a whole, favours compounds with a hit. Of some 83,000 tested, about 20% had one in any assay.
observed_property: growth (%)
Unit % implied. Number only.

Please give the measured growth for this compound: "CC(=O)c1c(C)nc(SCC(=O)Nc2ccc(Cl)cc2)n1-c1ccc(Cl)cc1"
92.5

What about this compound? "Clc1ccc(Nc2nc(Nc3ccc(Cl)cc3)nc(Nc3ccc(-c4cc(-c5cccc(Cl)c5)on4)cc3)n2)cc1"
87.7

How about "COc1ccc(Oc2nc(Nc3ccc(N4CCOCC4)cc3)ncc2NC(=O)c2cc(OC)cc(OC)c2)cc1" ?
90

###

test system: SR leukemia; experiment: NCI-60 one-dose screen, 48 h; conditions: 10 µM unless noted
This is part of a sample that, as a whole, favours compounds with a hit. Of some 83,000 tested, about 20% had one in any assay. Active and inactive are the calls of the source. Rule for the calls: active = growth percent below 10; inactive = the rest.
Lab note: assign the record to one of 1 (yes) = active, 0 (no) = inactive

I would be grateful if you could indicate the recorded call for C=C(CNCCc1ccc(O)cc1)[C@@H]1CC[C@]2(CO)CC[C@]3(C)[C@H](CC[C@@H]4[C@@]5(C)CCC(NCCc6ccc(O)cc6)C(C)(C)[C@@H]5CC[C@]43C)[C@@H]12 (some centres not stated) .
1 (yes)

Let us now turn to "COc1ccc(C/C(C)=C(\c2ccc(O)cc2)c2ccc(OCCCN(C)C)cc2)cc1"
0 (no)

Then what about the molecule "COC(=O)N/N=C/c1c[n+]([O-])c2ccccc2[n+]1[O-]" ?
0 (no)

Proceed to "COc1ccc2c(c1)c(C(=O)c1nc(-c3cn(C)c4ccccc34)no1)cn2C"
0 (no)

Follow-up entry: "NC(N)=NC(N)=NCCCc1ccco1"
0 (no)

Cool, now "C#CCn1cnc2cnc(Nc3cccc(NC(=O)CCl)c3)nc21"
1 (yes)

Here is the next molecule: "COc1ccc(/C=N/NC(=O)CN2CCN(c3cc4c(cc3F)c(=O)c(C(=O)O)cn4C3CC3)CC2)cc1O"
0 (no)

Proceed to "Cn1cc(-c2csc(-c3cn(CCOC(N)=O)c4ccccc34)n2)c2cccnc21"
0 (no)

Same question for "Cc1ccc(C(=O)c2ccc(CC(=O)N=Nc3c(O)[nH]c4ccc(OC(F)(F)F)cc34)n2C)cc1" please.
0 (no)

Param item: "Cc1ccc(NC(=O)N/C(N)=N/c2nc(=O)c3ccccc3s2)cc1"
0 (no)

Can you check "O=C(/C=C/c1ccc(F)cc1)Nc1ncc(Cc2ccc(F)cc2)s1" next?
0 (no)

Query "CCc1c2c(nc3ccc(OCc4ccc(B5OC(C)(C)C(C)(C)O5)cc4)cc13)-c1cc3c(c(=O)n1C2)COC(=O)[C@]3(O)CC" next
0 (no)

Same for CC12OC(CC(O)C1O)n1c3ccccc3c3c4c(c5c6ccccc6n2c5c31)C(=O)N(CCN1CCOCC1)C4=O (configuration not stated)
1 (yes)

Now consider "COc1cc(C=O)ccc1Oc1ccc([N+](=O)[O-])cc1[N+](=O)[O-]" and answer again.
0 (no)

Same thing, different molecule: "C/C(=C(\c1ccc(OCCN2CCOCC2)cc1)c1ccc(OC(=O)C2CCCCC2)cc1)c1ccc(Cl)cc1"
0 (no)

Subsequent entry: "CCOC(=O)c1cnn(-c2ccc(S(N)(=O)=O)cc2)c1N"
0 (no)

Same thing, different molecule: "CCOC(=O)c1cc2c(n1Cc1cc(OC)cc(OC)c1Br)-c1nc(NC(C)=O)sc1CCC2"
0 (no)

Would you kindly repeat that for COc1ccc2c(c1)CCNC21C(=O)Nc2c(Br)cc(Br)cc21 (configuration not stated) ?
0 (no)

Subsequent entry: "N=C(N)c1ccc(-c2ccc(-c3ccc(Cl)c(Cl)c3)s2)cc1"
1 (yes)

Another molecule to check: "CC/C(=C(/c1ccc(Cl)cc1)c1ccc(OCCN2CCOCC2)cc1)c1ccccc1"
0 (no)

Please do the same for "Cc1cccc(-c2nnc(SCC(=O)Nc3ncc(Cc4ccccc4)s3)n2N2C(=O)CSC2=S)c1" as well.
0 (no)

One more molecule: COc1nc(=O)n(C2C=CC(=O)O2)cc1F (configuration not stated)
1 (yes)

Please answer likewise for "COc1ccc(-c2ccc(-c3ccc(C(=N)N)cn3)o2)cc1Cl"
1 (yes)

Try the molecule "O=C1/C(=C/c2ccc(-c3cccc(C(F)(F)F)c3)o2)SC(=S)N1CCc1ccc(O)cc1"
0 (no)

Now give it for "CNC(=O)c1cc(Oc2ccc3nc(NC(=O)Nc4ccc(C(F)(F)F)cc4)sc3c2)ccn1" too.
0 (no)

Next up: "COc1ccc(C(=O)N/N=C/c2ccc(O)cc2O)cc1Nc1ccnc(C(F)(F)F)c1"
0 (no)

And the next one, COc1ccc(C2Nc3nc(SC)nc(N)c3N=C3c4ccccc4CCC32)cc1 (configuration not stated) ?
0 (no)
